- Tested on: insulin-non-dependent diabetes mellitus
- procedure-details: Blood sugar level in db/db mice (Example 26)
- Format: in vivo
- experimental-conditions: intraperitoneal, age 4 to 9 weeks, three times per week; at satiation; saline 100
- Text: db/db mice purchased from Nippon Clair, Co. were naturally mated together. Among the off spring mice, a colony of db/db mice with a high frequency of the spontaneous onset of insulin-non-dependent diabetes mellitus was established. Male db/db mice from the colony were used for the present experiment. […]
property-label: Relative ratio % of blood sugar level, 6 weeks (%)
Answers are plain numbers, in %.

Worked cases, answers included:
molecule	experimental-system	endpoint-unit	measured-value
COC(=O)[C@H](CSSC[C@H](NC(C)=O)C(=O)OC)NC(C)=O	insulin-non-dependent diabetes mellitus	%	94
CC(=O)N[C@@H](CSSC[C@H](NC(C)=O)C(=O)O)C(=O)O	insulin-non-dependent diabetes mellitus	%	95

For every record below, what is its Relative ratio % of blood sugar level, 6 weeks?
1. CCOC(=O)CNC(=O)[C@H](CS)NC(=O)CC[C@H](N)C(=O)OCC
2. COC(=O)C(N)CCC(=O)NC(CS)C(=O)OC (stereo not shown)

Response:
[82, 85]
